protocol.description: Human HepG2 cell viability assay in 384 well format
Format: toxicity, cell-based
Set-up: dose 125 nL, time 70.5 hour; concentration not given beside the values
experimental.conditions: HepG2 cells, read-out: Inhibition
metric.name: cytotoxicity at 70.5 h
Write the figure, then the unit, nothing else.

Examples with answers:
Cc1cccc(-c2ccc(C(=O)NCC3CCOC3)c(=O)[nH]2)c1 (configuration not stated): -28.7%
O=C(Cn1cccc(S(=O)(=O)N2CCCC2)c1=O)c1ccccc1Cl: -8.77%
CS(=O)(=O)N1C[C@@H]2COC[C@]2(CN2CCOCC2)C1: -8.04%
O=c1oc2ccccc2n1CCCN1CCCC1c1ccc(O)cc1 (configuration not stated): -1.72%
COCC1COCCC12CCN(Cc1nccs1)CC2 (configuration not stated): -5.6%
CN1CCCc2cc(CNC(=O)c3ccncc3)ccc21: 33.4%

Entry `O=C(NC1CC(F)(F)C1)[C@]12COC[C@H]1CN(Cc1cccnc1)C2` ; cytotoxicity at 70.5 h = -10.6%

# credit: ChEMBL document CHEMBL3507680
